Values were extracted from paper PMC5355877.

Biological target: LTA4H epoxide hydrolase activity (LTB4 generation) (Homo sapiens, UniProt P09960)
Construct: endogenous in cells
Sequence (P09960 whole entry): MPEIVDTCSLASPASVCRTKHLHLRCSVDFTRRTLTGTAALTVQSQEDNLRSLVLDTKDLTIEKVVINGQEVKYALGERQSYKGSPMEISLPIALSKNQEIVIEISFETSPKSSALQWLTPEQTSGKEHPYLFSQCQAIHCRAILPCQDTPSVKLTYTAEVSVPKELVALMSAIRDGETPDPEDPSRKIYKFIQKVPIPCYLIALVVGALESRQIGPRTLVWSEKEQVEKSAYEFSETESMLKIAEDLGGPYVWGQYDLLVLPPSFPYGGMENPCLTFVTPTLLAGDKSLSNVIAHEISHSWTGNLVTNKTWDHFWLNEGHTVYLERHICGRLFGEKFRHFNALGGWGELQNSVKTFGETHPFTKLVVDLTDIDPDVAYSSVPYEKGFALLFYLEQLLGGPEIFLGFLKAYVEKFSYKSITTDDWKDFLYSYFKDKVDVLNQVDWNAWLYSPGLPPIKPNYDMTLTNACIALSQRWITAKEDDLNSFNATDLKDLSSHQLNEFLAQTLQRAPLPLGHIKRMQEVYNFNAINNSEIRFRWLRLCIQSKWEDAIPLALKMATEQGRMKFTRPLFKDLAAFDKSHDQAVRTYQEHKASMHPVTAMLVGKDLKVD
Test: LTB4 generation by human blood-derived neutrophils
Conditions: preliminary data, blood-derived neutrophils from two distinct donors
recordedMetric: pIC50
Please keep in mind that pIC50 is minus log10 of the molar concentration; only the number is needed.

**Q:** Param readout= pIC50; system= LTA4H epoxide hydrolase activity (LTB4 generation) (Homo sapiens, UniProt P09960); entry= "COc1cc(O)cc(CCc2ccccc2O)c1" ; returns value.
**A:** 5.62

* * *

Experiment: Human liver microsome stability
Format: in vitro ADME
Details: liver microsomes
recordedMetric: microsomal CLint (µL/min/mg)
Value expressed in µL/min/mg; do not type the unit.

**Q:** Please report the recorded microsomal CLint for "COc1cc(O)cc(CCc2ccccc2O)c1" .
**A:** 59.5
